Property: melting point; scope: individual compounds

Worked set:
Cl.Cn1c2c(c3ccc(-n4ccc(OCc5ccc(C(F)(F)F)nc5)cc4=O)cc31)C1CCCN1CC2 (stereo not drawn) :: 250 to 254 °C
Cl.O=c1cc(OCc2ccccc2)ccn1-c1ccc2c3c([nH]c2c1)CC1CCCN1C3 (stereo not drawn) :: 270 to 273 °C

Next, consider the following compound.
Given item Cl.Cn1c2c(c3ccc(-n4ccc(OCc5ccccc5)cc4=O)cc31)CCN1CCCCC21 (stereo not drawn) , the value recorded as its melting point is 210 to 213 °C

###

Where a name gives a salt, the structure may show the parent alone.
Each entry below lists one item and its recorded melting point value.

Example results:
Cl.Cn1c2c(c3ccc(-n4ccc(-c5ccc(C(F)(F)F)nc5)cc4=O)cc31)CN1CCCCC1C2 (stereo not drawn) :: 245 to 248 °C
Cn1c2c(c3ccc(-n4ccc(OCc5ccc(F)cn5)cc4=O)cc31)C1CCCN1CC2 (stereo not drawn) (as salt: hydrochloride) [Example 19, Dihydrochloride] :: 240 to 243 °C
Cl.Cn1c2c(c3ccc(-n4ccc(OCc5ccccc5)cc4=O)nc31)CN1CCCC1C2 (stereo not drawn) :: 240 to 250 °C

Looking up Cl.Cn1c2c(c3ccc(-n4ccc(OCc5ccccc5)cc4=O)cc31)C1CCCN1CC2 (stereo not drawn) , I see its melting point listed as 260 to 264 °C

Kindly note the recorded melting point for Cl.Cn1c2c(c3ccc(-n4ccc(-c5ccc(C(F)(F)F)cn5)cc4=O)cc31)CCN1CCCCC21 (stereo not drawn) , which is 280 to 284 °C

Input Cl.Cn1c2c(c3ccc(-n4ccc(OCc5ccccc5)cc4=O)cc31)CN1CCCC1C2 (stereo not drawn) . Output melting point: 255 to 258 °C

The compound identified as Cl.Cn1c2c(c3ccc(-n4ccc(-c5ccc(C(F)(F)F)nc5)cc4=O)cc31)CN1CCCC1C2 (stereo not drawn) registered its melting point at 290 to 293 °C

Recorded result, Cl.Cn1c2c(c3ccc(-n4ccc(OCc5ccc(C(F)(F)F)nc5)cc4=O)cc31)CN1CCCCC1C2 (stereo not drawn) , melting point: 260 to 262 °C

Per the record, Cl.Cn1c2c(c3ccc(-n4ccc(OCc5ccccc5)cc4=O)cc31)CCN1CCCC21 (single isomer, unassigned; (+)) [Example 4] has melting point of 227 to 230 °C
